Attribute: viability at 72 h, 30 µM
assay: Cytotoxicity against human MRC5 cells assessed as metabolic active cells at 30 uM after 72 hrs by XTT assay relative to control; assay type: ADME, cell-based; conditions: read-out: Activity

CCCCCCCCCCCCCc1cc(=O)c2ccccc2n1C : 102%

Exam item: Bench note: what viability at 72 h, 30 µM did CC/C=C\CCCCCCCCCc1cc(=O)c2ccccc2n1C show?
Marked response: 95.3%

Exam item: Bench note: what viability at 72 h, 30 µM did CCCCCC/C=C/c1cc(=O)c2ccccc2n1C show?
Marked response: 96.8%

Exam item: Bench note: what viability at 72 h, 30 µM did CCCCCCCC/C=C\CCc1cc(=O)c2ccccc2n1C show?
Marked response: 88.3%

Exam item: Bench note: what viability at 72 h, 30 µM did CCCCCCCCCCC/C=C/C=C/c1cc(=O)c2ccccc2n1C show?
Marked response: 50.7%

Exam item: Bench note: what viability at 72 h, 30 µM did CCCCCC/C=C\CCc1cc(=O)c2ccccc2n1C show?
Marked response: 73.8%

* * *

assay: Cytotoxicity against human MRC5 cells assessed as metabolic active cells at 30 uM after 72 hrs by XTT assay relative to control; format: ADME, cell-based; settings: read-out: Activity
Observed property: viability at 72 h, 30 µM
Write the figure, then the unit, nothing else.

Known results for compounds:
CCCCCCCC/C=C\CCCCCCCc1cc(=O)c2ccccc2n1C : 53.4%
CCCCCC/C=C\CCCCc1cc(=O)c2ccccc2n1C : 94.7%

Exam item: Bench note: what viability at 72 h, 30 µM did CCCCCCCCCC/C=C\CCc1cc(=O)c2ccccc2n1C show?
Marked response: 55.1%

Exam item: Bench note: what viability at 72 h, 30 µM did CCCCC/C=C\C/C=C\CCCCCCCc1cc(=O)c2ccccc2n1C show?
Marked response: 44.2%

Exam item: Bench note: what viability at 72 h, 30 µM did CCCCCCCCCC/C=C/C=C/c1cc(=O)c2ccccc2n1C show?
Marked response: 73.8%

* * *

Attribute: viability at 72 h, 30 µM
assay: Cytotoxicity against human MRC5 cells assessed as metabolic active cells at 30 uM after 72 hrs by XTT assay relative to control; format: ADME, cell-based; conditions: read-out: Activity
The response must be a number in % with no trailing unit.

Known results for molecules:
CCCCC/C=C/c1cc(=O)c2ccccc2n1C : 86.2
CCCCCCCCCCCCCCCCCc1cc(=O)c2ccccc2n1C : 100
CCCCC/C=C\CCCCCCc1cc(=O)c2ccccc2n1C : 94

Exam item: Bench note: what viability at 72 h, 30 µM did CCCCCCCC/C=C\CCCc1cc(=O)c2ccccc2n1C show?
Marked response: 76.3

Exam item: Bench note: what viability at 72 h, 30 µM did CCCCC/C=C\CCCCc1cc(=O)c2ccccc2n1C show?
Marked response: 94.9

Exam item: Bench note: what viability at 72 h, 30 µM did CCCCCCCCC/C=C\CCCCCCCCc1cc(=O)c2ccccc2n1C show?
Marked response: 95.9

Exam item: Bench note: what viability at 72 h, 30 µM did CCCCCCCCC/C=C\CCc1cc(=O)c2ccccc2n1C show?
Marked response: 89.7

Exam item: Bench note: what viability at 72 h, 30 µM did CCCCCCCCCC/C=C\CCCCCCCCc1cc(=O)c2ccccc2n1C show?
Marked response: 98.9

* * *

test: Cytotoxicity against human MRC5 cells assessed as metabolic active cells at 100 uM after 72 hrs by XTT assay relative to control; format: ADME, cell-based; settings: read-out: Activity
Attribute: viability at 72 h, 100 µM
The response must be a number in % with no trailing unit.

Known results for molecules:
CCCCCCCC/C=C\CCc1cc(=O)c2ccccc2n1C : 85.6
CCCCCC/C=C\CCc1cc(=O)c2ccccc2n1C : 47.9
CCCC/C=C\CCCCc1cc(=O)c2ccccc2n1C : 83.5

Exam item: Bench note: what viability at 72 h, 100 µM did CCCCC/C=C\C/C=C\CCCCCCCc1cc(=O)c2ccccc2n1C show?
Marked response: 0.4

* * *

system: Mycolicibacterium smegmatis; assay: Antimycobacterial activity against Mycobacterium smegmatis ATCC 19420 after 72 hrs by broth microtiter dilution method; format: functional; details: ATCC 19420, 72 h
Please use the following MIC ranges when assigning a class: bin 1 (below 6 µM), bin 2 (6 µM to below 40 µM), bin 3 (40 µM or more)

CCCCCCCCCC/C=C\CCc1cc(=O)c2ccccc2n1C : bin 1
CCCCCCCCCCC/C=C/C=C/c1cc(=O)c2ccccc2n1C : bin 2
CCCCCCCC/C=C\CCCCCCCc1cc(=O)c2ccccc2n1C : bin 2
CCCCCCCCCC/C=C/C=C/c1cc(=O)c2ccccc2n1C : bin 3
CCCCC/C=C/c1cc(=O)c2ccccc2n1C : bin 3
CCCCCC/C=C\CCCCc1cc(=O)c2ccccc2n1C : bin 1

Now for a further compound.
Exam item: Band assignment needed for CCCCCCCCCCCCCCCc1cc(=O)c2ccccc2n1C please.
Marked response: bin 3

* * *

Attribute: viability at 72 h, 30 µM
experiment: Cytotoxicity against human MRC5 cells assessed as metabolic active cells at 30 uM after 72 hrs by XTT assay relative to control; format: ADME, cell-based; details: read-out: Activity
The response must be a number in % with no trailing unit.

Exam item: Bench note: what viability at 72 h, 30 µM did CCCCCCCC/C=C\CCCCCCCCc1cc(=O)c2ccccc2n1C show?
Marked response: 84.4

Exam item: Bench note: what viability at 72 h, 30 µM did CCCCCCCCC/C=C\CCCCc1cc(=O)c2ccccc2n1C show?
Marked response: 46.6

Exam item: Bench note: what viability at 72 h, 30 µM did CCCCCCCCCCCCCCCc1cc(=O)c2ccccc2n1C show?
Marked response: 79.8

Exam item: Bench note: what viability at 72 h, 30 µM did CCCC/C=C\CCCCc1cc(=O)c2ccccc2n1C show?
Marked response: 96.8

* * *

experiment: Cytotoxicity against human MRC5 cells assessed as metabolic active cells at 100 uM after 72 hrs by XTT assay relative to control; type: ADME, cell-based; settings: read-out: Activity
Label Condition met when viability at 72 h, 100 µM is strictly below 80%; at or above that, label Condition not met.

Worked set:
CCCCCCCCC/C=C\CCCCCCCCc1cc(=O)c2ccccc2n1C : Condition met
CCCCCCCCCC/C=C\CCCCCCCCc1cc(=O)c2ccccc2n1C : Condition not met
CCCCC/C=C\CCCCCCc1cc(=O)c2ccccc2n1C [EVOCARPINE] : Condition not met
CC/C=C\CCCCCCCCCc1cc(=O)c2ccccc2n1C : Condition not met
CCCCCCCC/C=C\CCCc1cc(=O)c2ccccc2n1C : Condition met
CCCCCCCCC/C=C\CCCCc1cc(=O)c2ccccc2n1C : Condition met
CCCCCCCCCC/C=C/C=C/c1cc(=O)c2ccccc2n1C : Condition met
CCCCCCCCCCCCCCCCCc1cc(=O)c2ccccc2n1C : Condition not met
CCCCCCCCCC/C=C\CCc1cc(=O)c2ccccc2n1C : Condition met
CCCCCCCCCCCCCc1cc(=O)c2ccccc2n1C : Condition met

Exam item: I'd appreciate it if you could check whether CCCCCC/C=C/c1cc(=O)c2ccccc2n1C has viability at 72 h, 100 µM smaller than 80%.
Marked response: Condition met

Exam item: I'd appreciate it if you could check whether CCCCCCCCCCCCCCCc1cc(=O)c2ccccc2n1C has viability at 72 h, 100 µM smaller than 80%.
Marked response: Condition met

Exam item: I'd appreciate it if you could check whether CCCCC/C=C/c1cc(=O)c2ccccc2n1C has viability at 72 h, 100 µM smaller than 80%.
Marked response: Condition met

Exam item: I'd appreciate it if you could check whether CCCCCCCCCCC/C=C/C=C/c1cc(=O)c2ccccc2n1C has viability at 72 h, 100 µM smaller than 80%.
Marked response: Condition met

Exam item: I'd appreciate it if you could check whether CCCCCCCC/C=C\CCCCCCCCc1cc(=O)c2ccccc2n1C has viability at 72 h, 100 µM smaller than 80%.
Marked response: Condition met

Exam item: I'd appreciate it if you could check whether CCCCC/C=C\CCCCc1cc(=O)c2ccccc2n1C has viability at 72 h, 100 µM smaller than 80%.
Marked response: Condition not met

Exam item: I'd appreciate it if you could check whether CCCCCCCC/C=C\CCCCCCCc1cc(=O)c2ccccc2n1C has viability at 72 h, 100 µM smaller than 80%.
Marked response: Condition met

* * *

test system: Mycolicibacterium smegmatis; assay: Antimycobacterial activity against Mycobacterium smegmatis ATCC 19420 after 72 hrs by broth microtiter dilution method; assay type: functional; conditions: ATCC 19420, 72 h
Observed property: log10 MIC (log10 of the value in µM)
Answers are given as log10 of MIC in µM.

Known results for compounds:
CC/C=C\CCCCCCCCCc1cc(=O)c2ccccc2n1C : 0.77
CCCCCCCC/C=C\CCCc1cc(=O)c2ccccc2n1C : 0.77
CCCCCCCC/C=C\CCCCCCCCc1cc(=O)c2ccccc2n1C : 1.59
CCCCCC/C=C\CCc1cc(=O)c2ccccc2n1C : 1.73
CCCCCCCCC/C=C\CCCCc1cc(=O)c2ccccc2n1C : 0.43

Exam item: GET /values?readout=log10 MIC&system=Mycolicibacterium smegmatis&item= CCCCCCCCC/C=C\CCCCCCCCc1cc(=O)c2ccccc2n1C
Marked response: 2.18

Exam item: GET /values?readout=log10 MIC&system=Mycolicibacterium smegmatis&item= CCCC/C=C\CCCCc1cc(=O)c2ccccc2n1C
Marked response: 1.43

Exam item: GET /values?readout=log10 MIC&system=Mycolicibacterium smegmatis&item= CCCCC/C=C\CCCCCCc1cc(=O)c2ccccc2n1C
Marked response: 0.77

Exam item: GET /values?readout=log10 MIC&system=Mycolicibacterium smegmatis&item= CCCCCCCCC/C=C\CCc1cc(=O)c2ccccc2n1C
Marked response: 0.77

Exam item: GET /values?readout=log10 MIC&system=Mycolicibacterium smegmatis&item= CCCCCCCCCCCCCc1cc(=O)c2ccccc2n1C
Marked response: 2.27
